Test system: Proteus vulgaris
method: Antibacterial activity against Proteus vulgaris 56
Type: functional
readout_name: MIC (µg/mL)
All answers are understood in µg/mL, so give the number only.

{"compound": "CCO/N=C1\\CCN(c2c(F)cc3c(=O)c(C(=O)O)cn(CCF)c3c2F)CC1CN (racemic)", "target_entity": "Proteus vulgaris", "unit_info": "µg/mL", "MIC": 16}

Exam item: Test system Proteus vulgaris; read-out MIC; what value for CCO/N=C1\CCN(c2c(F)cc3c(=O)c(C(=O)O)cn(CC)c3c2F)CC1CN (racemic) ?
Marked response: 16

Exam item: Test system Proteus vulgaris; read-out MIC; what value for CCO/N=C1\CCN(c2c(F)cc3c(=O)c(C(=O)O)cn(C4CC4)c3c2OC)CC1CN (racemic) ?
Marked response: 32

###

method: Cytotoxicity against african green monkey Vero cells after 24 hrs
Format: cell-based
condition_info: chlorocebus sabaeus
Overview of recorded CC50 at 24 h for various compounds
All answers are understood in µg/mL, so give the number only.

{"compound": "CCO/N=C1\\CCN(c2nc3c(cc2F)c(=O)c(C(=O)O)cn3-c2ccc(F)cc2F)CC1CN (racemic)", "readout_name": "CC50 at 24 h", "experimental_result": 72.6}
{"compound": "CO/N=C1\\CCN(c2nc3c(cc2F)c(=O)c(C(=O)O)cn3-c2ccc(F)cc2F)CC1CN (racemic)", "readout_name": "CC50 at 24 h", "experimental_result": 96}
{"compound": "CCO/N=C1\\CCN(c2c(F)cc3c(=O)c(C(=O)O)cn(CC)c3c2F)CC1CN (racemic)", "readout_name": "CC50 at 24 h", "experimental_result": 410}

In the following, a different compound is considered.
Exam item: For the compound CCO/N=C1\CCN(c2c(F)cc3c(=O)c(C(=O)O)cn(C4CC4)c3c2F)CC1CN (racemic) , what CC50 at 24 h is on record?
Marked response: 257

###

System: Staphylococcus aureus
method: Antibacterial activity against Staphylococcus aureus ATCC 13709
Assay type: functional
Overview of recorded MIC for various molecules

Exam item: For the molecule CCn1cc(C(=O)O)c(=O)c2cc(F)c(N3CC/C(=N\OC)C(CN)C3)c(F)c21 (racemic) , what MIC is on record?
Marked response: 2 µg/mL

Exam item: For the molecule CO/N=C1\CCN(c2c(F)cc3c(=O)c(C(=O)O)cn(C4CC4)c3c2OC(F)F)CC1CN (racemic) , what MIC is on record?
Marked response: 0.25 µg/mL

Exam item: For the molecule CCO/N=C1\CCN(c2c(F)cc3c(=O)c(C(=O)O)cn(C4CC4)c3c2OC)CC1CN (racemic) , what MIC is on record?
Marked response: 1 µg/mL

Exam item: For the molecule CO/N=C1\CN(c2nc3c(cc2F)c(=O)c(C(=O)O)cn3C2CC2)CC1CN (centres undefined) , what MIC is on record?
Marked response: ≤ 0.03 µg/mL

###

System: Staphylococcus aureus
method: Antibacterial activity against methicillin-sensitive Staphylococcus aureus 08-49
Type: functional
readout_name: log10 MIC (log10 of the value in µg/mL)
Transform log10 | Measure MIC | Unit µg/mL

{"compound": "O=C(O)c1cn(C2CC2)c2cc(N3CCNCC3)c(F)cc2c1=O", "log10 MIC": -0.60}
{"compound": "CO/N=C1\\CCN(c2c(F)cc3c(=O)c(C(=O)O)cn(C4CC4)c3c2OC)CC1CN (racemic)", "log10 MIC": -0.60}
{"compound": "CO/N=C1\\CCN(c2nc3c(cc2F)c(=O)c(C(=O)O)cn3-c2ccc(F)cc2F)CC1CN (racemic)", "log10 MIC": -0.60}
{"compound": "CCO/N=C1\\CCN(c2c(F)cc3c(=O)c(C(=O)O)cn(C4CC4)c3c2F)CC1CN (racemic)", "log10 MIC": -0.60}
{"compound": "CCn1cc(C(=O)O)c(=O)c2cc(F)c(N3CC/C(=N\\OC)C(CN)C3)c(F)c21 (racemic)", "log10 MIC": 0.60}
{"compound": "C[C@H]1COc2c(N3CCN(C)CC3)c(F)cc3c(=O)c(C(=O)O)cn1c23.C[C@H]1COc2c(N3CCN(C)CC3)c(F)cc3c(=O)c(C(=O)O)cn1c23.O", "log10 MIC": -1.22}
{"compound": "CO/N=C1\\CCN(c2c(F)cc3c(=O)c(C(=O)O)cn(C4CC4)c3c2F)CC1CN (racemic)", "log10 MIC": -0.30}
{"compound": "CCO/N=C1\\CCN(c2c(F)cc3c(=O)c(C(=O)O)cn(C4CC4)c3c2OC)CC1CN (racemic)", "log10 MIC": -0.60}
{"compound": "CCO/N=C1\\CCN(c2nc3c(cc2F)c(=O)c(C(=O)O)cn3-c2ccc(F)cc2F)CC1CN (racemic)", "log10 MIC": -0.60}

In the following, a different compound is considered.
Exam item: For the compound CO/N=C1\CCN(c2c(F)cc3c(=O)c(C(=O)O)cn(C4CC4)c3c2OC(F)F)CC1CN (racemic) , what log10 MIC is on record?
Marked response: -0.90
